Numbers sourced from patent US8476264B2.

For each entry below, report its pIC50 value.
# Tested target: BACE1 (Homo sapiens)
# Construct: Human HEK293 cells which are stably transfected with a vector expressing a cDNA of the human APP wt gene (APP695); endogenous in cells
# Experimental protocol: Cellular Aβ-lowering assay (Aβ40 ELISA)
# Condition notes: HEK293 cells stably expressing human APP wt (APP695); Aβ40 in supernatant after 18-20 hrs; read-out: BACE1 cell act. Aβ40 IC50
Please treat pIC50 as minus the base-10 logarithm of the molar concentration.

Req: Looking for the measured pIC50 of "NC1=N[C@](CF)(c2cc(NC(=O)c3ncc(Cl)cn3)ccc2F)[C@H]2CC(F)(F)C[C@H]2O1" , can you help?
Resp: 8.10

Req: Any idea what pIC50 was measured for "Cc1nc(C(=O)Nc2ccc(F)c([C@@]3(C(F)F)N=C(N)O[C@@H]4CC(F)(F)C[C@@H]43)c2)co1" ?
Resp: 7.38

Req: Any idea what pIC50 was measured for "NC1=N[C@](CF)(c2cc(NC(=O)c3ccc(OCC(F)(F)F)cn3)ccc2F)[C@H]2CC(F)(F)C[C@H]2O1" ?
Resp: 7.77

Req: Quick check: pIC50 of "CC(F)(F)c1cnc(C(=O)Nc2ccc(F)c([C@@]3(CF)N=C(N)O[C@@H]4CC(F)(F)C[C@@H]43)c2)cn1" ?
Resp: 7.44

Req: Requested read-out: pIC50. Entry: "Cc1nc(C(=O)Nc2ccc(F)c([C@@]3(CF)N=C(N)O[C@@H]4CC(F)(F)C[C@@H]43)c2)co1"
Resp: 8.32

Req: For the compound "NC1=N[C@](CF)(c2cc(NC(=O)c3ccc(OCC(F)F)cn3)ccc2F)[C@H]2CC(F)(F)C[C@H]2O1" , what pIC50 is on record?
Resp: 7.64

Req: Return reported pIC50; argument: "NC1=N[C@](CF)(c2cc(NC(=O)c3cnc(OCC4CC4)cn3)ccc2F)[C@H]2CC(F)(F)C[C@H]2O1"
Resp: 7.82

====

# Tested target: BACE1 (Homo sapiens, UniProt P56817)
# Construct: Human HEK293 cells which are stably transfected with a vector expressing a cDNA of the human APP wt gene (APP695); endogenous in cells
# Sequence (P56817 46-501): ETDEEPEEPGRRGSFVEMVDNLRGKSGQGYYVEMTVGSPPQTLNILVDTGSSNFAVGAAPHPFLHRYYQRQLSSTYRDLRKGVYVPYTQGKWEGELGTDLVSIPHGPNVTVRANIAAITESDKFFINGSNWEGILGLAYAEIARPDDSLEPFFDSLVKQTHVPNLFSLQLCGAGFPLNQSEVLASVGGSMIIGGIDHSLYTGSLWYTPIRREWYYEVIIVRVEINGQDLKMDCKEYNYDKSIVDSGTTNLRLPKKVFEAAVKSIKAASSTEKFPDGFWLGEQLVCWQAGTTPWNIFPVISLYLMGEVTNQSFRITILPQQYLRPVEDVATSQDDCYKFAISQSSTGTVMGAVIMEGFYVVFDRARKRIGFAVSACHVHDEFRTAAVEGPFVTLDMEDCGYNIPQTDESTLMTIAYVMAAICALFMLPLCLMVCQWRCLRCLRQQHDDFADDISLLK
# Experimental protocol: Cellular Aβ-lowering assay (Aβ40 ELISA)
# Condition notes: HEK293 cells stably expressing human APP wt (APP695); Aβ40 in supernatant after 18-20 hrs; read-out: BACE1 cell act. Aβ40 IC50
Please use the following IC50 ranges when assigning a class: bin 1 (below 4 nM), bin 2 (4 nM to below 20 nM), bin 3 (20 nM or more)

Req: # bin lookup: classify NC1=N[C@](CF)(c2cc(NC(=O)c3cnc(C(F)(F)F)cn3)ccc2F)[C@H]2CC(F)(F)C[C@H]2O1 [Example 28] by its IC50
Resp: bin 2

Req: Just checking, what class would you give NC1=N[C@](CF)(c2cc(NC(=O)c3cnc(OCC(F)F)cn3)ccc2F)[C@H]2CC(F)(F)C[C@H]2O1 [Example 23] here?
Resp: bin 2

Req: Kindly state the category for this molecule: NC1=N[C@@](c2cc(NC(=O)c3ccc(Cl)cn3)ccc2F)(C(F)F)[C@H]2CC(F)(F)C[C@H]2O1 [Example 37]
Resp: bin 2

Req: # classify by IC50 band: N#Cc1ccc(C(=O)Nc2ccc(F)c([C@]3(CF)N=C(N)O[C@@]4(CF)CC(F)(F)C[C@H]43)c2)nc1 [Example 45]
Resp: bin 3

Req: Please indicate the class for C[C@]1(c2cc(NC(=O)c3ccc(Cl)cn3)ccc2F)N=C(N)O[C@@H]2CC(F)(F)C[C@@H]21 [Example 1] based on its IC50.
Resp: bin 1

Req: Any idea which band NC1=N[C@@](c2cc(NC(=O)c3cnc(C(F)F)cn3)ccc2F)(C(F)F)[C@H]2CC(F)(F)C[C@H]2O1 [Example 40] is in?
Resp: bin 3

Req: Sort NC1=N[C@](CF)(c2cc(NC(=O)c3cnc(OCF)cn3)ccc2F)[C@H]2CC(F)(F)C[C@H]2O1 [Example 26] into one of the categories.
Resp: bin 1

Req: Which IC50 band matches NC1=N[C@](CF)(c2cc(NC(=O)c3ccc(OCC4CC4)cn3)ccc2F)[C@H]2CC(F)(F)C[C@H]2O1 [Example 12] ?
Resp: bin 2

Req: In plain terms, what class is NC1=N[C@](CF)(c2cc(NC(=O)c3cnc(OC(F)F)cn3)ccc2F)[C@H]2CC(F)(F)C[C@H]2O1 [Example 21] ?
Resp: bin 1

Req: Band for the recorded IC50 of NC1=N[C@](CF)(c2cc(NC(=O)c3nn(C(F)F)cc3Cl)ccc2F)[C@H]2CC(F)(F)C[C@H]2O1 [Example 35] ?
Resp: bin 1

Req: For the record NC1=N[C@](CF)(c2cc(NC(=O)c3ncc(F)cc3F)ccc2F)[C@H]2CC(F)(F)C[C@H]2O1 [Example 8] , report the class its IC50 corresponds to.
Resp: bin 2

Req: Exam item: assign NC1=N[C@@](c2cc(NC(=O)c3nn(C(F)F)cc3Cl)ccc2F)(C(F)F)[C@H]2CC(F)(F)C[C@H]2O1 [Example 43] to the correct category.
Resp: bin 2

====

Task for the reader: assign each of the following molecules its reported IC50.

Req: Lookup: IC50 / CYP3A4 (Homo sapiens, UniProt P08684) / "N#Cc1ccc(C(=O)Nc2ccc(F)c([C@@]3(C(F)F)N=C(N)O[C@@H]4CC(F)(F)C[C@@H]43)c2)nc1"
Resp: > 10 µM

Req: State its IC50 on CYP3A4 (Homo sapiens, UniProt P08684): "C[C@]1(c2cc(NC(=O)c3ccc(C#N)cn3)ccc2F)N=C(N)O[C@@H]2CC(F)(F)C[C@@H]21"
Sequence (P08684 whole entry): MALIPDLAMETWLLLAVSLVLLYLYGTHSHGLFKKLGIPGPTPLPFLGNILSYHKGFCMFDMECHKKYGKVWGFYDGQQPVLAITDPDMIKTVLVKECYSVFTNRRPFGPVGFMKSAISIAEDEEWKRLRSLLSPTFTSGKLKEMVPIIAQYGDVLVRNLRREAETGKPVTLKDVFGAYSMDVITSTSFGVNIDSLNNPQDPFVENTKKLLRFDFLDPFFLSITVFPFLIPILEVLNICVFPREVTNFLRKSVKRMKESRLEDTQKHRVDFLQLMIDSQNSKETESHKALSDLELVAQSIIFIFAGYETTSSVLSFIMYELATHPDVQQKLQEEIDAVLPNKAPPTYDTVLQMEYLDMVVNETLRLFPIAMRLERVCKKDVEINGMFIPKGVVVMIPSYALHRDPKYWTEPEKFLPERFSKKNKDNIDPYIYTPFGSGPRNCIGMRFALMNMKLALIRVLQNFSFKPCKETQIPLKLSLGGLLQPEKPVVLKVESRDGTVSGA
Resp: > 10 µM

Req: Please tell me: IC50 of "COc1cnc(C(=O)Nc2ccc(F)c([C@@]3(C(F)F)N=C(N)O[C@@H]4CC(F)(F)C[C@@H]43)c2)cn1" , system CYP3A4 (Homo sapiens, UniProt P08684)?
Resp: > 10 µM

====

# Tested target: recombinant human cathepsin E (Homo sapiens)
# Sequence (P14091 54-396): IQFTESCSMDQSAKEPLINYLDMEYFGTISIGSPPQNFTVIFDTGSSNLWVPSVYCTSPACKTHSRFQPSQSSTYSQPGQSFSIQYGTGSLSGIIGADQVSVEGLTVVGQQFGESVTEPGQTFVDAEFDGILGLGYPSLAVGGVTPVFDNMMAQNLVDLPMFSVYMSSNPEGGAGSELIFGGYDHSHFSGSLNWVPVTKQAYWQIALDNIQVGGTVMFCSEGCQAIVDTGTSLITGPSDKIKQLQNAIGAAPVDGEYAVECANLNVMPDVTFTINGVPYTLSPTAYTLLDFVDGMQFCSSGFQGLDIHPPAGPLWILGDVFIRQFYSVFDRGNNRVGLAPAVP
# Experimental protocol: Cathepsin E fluorescent substrate kinetic assay
# Condition notes: pH 4.5, substrate MR121-[…]
# Text: Cathepsin D and Cathepsin E Fluorescent Substrate Kinetic Assays The MR121 fluorescence assays described below are based on the fact that MR121 forms a non-fluorescent ground state complex with tryptophan. In solution this formation occurs at millimolar concentrations of tryptophan. […] In absence of protease activity, the substrates remain intact and the MR121 fluorescence is reduced by the high local Trp-concentration. If the substrates are cleaved by the enzymes the MR121 fluorescence is recovered. […]
Assay metric: IC50

Req: Give the measured IC50 of NC1=N[C@](CF)(c2cc(NC(=O)c3cnc(C(F)F)cn3)ccc2F)[C@H]2CC(F)(F)C[C@H]2O1 [Example 24] .
Resp: > 200 µM

Req: Consider the compound shown here: COc1cnc(C(=O)Nc2ccc(F)c([C@@]3(C(F)F)N=C(N)O[C@@H]4CC(F)(F)C[C@@H]43)c2)cn1 [Example 42] What is its recorded IC50?
Resp: > 200 µM

Req: // lookup IC50 for N#Cc1ccc(C(=O)Nc2ccc(F)c([C@@]3(C(F)F)N=C(N)O[C@@H]4CC(F)(F)C[C@@H]43)c2)nc1 [Example 36]
Resp: > 200 µM

Req: Reported IC50, compound N#Cc1ccc(C(=O)Nc2ccc(F)c([C@@]3(CF)N=C(N)O[C@@H]4CC(F)(F)C[C@@H]43)c2)nc1 [Example 3] : ____
Resp: > 200 µM

====

# Tested target: BACE1 (Homo sapiens)
# Construct: Human HEK293 cells which are stably transfected with a vector expressing a cDNA of the human APP wt gene (APP695); endogenous in cells
# Experimental protocol: Cellular Aβ-lowering assay (Aβ40 ELISA)
# Condition notes: HEK293 cells stably expressing human APP wt (APP695); Aβ40 in supernatant after 18-20 hrs; read-out: BACE1 cell act. Aβ40 IC50
Assay metric: pIC50
pIC50 here: minus log base 10 of the concentration, concentration in moles per litre.

Req: Which measured pIC50 belongs to "NC1=N[C@](CF)(c2cc(NC(=O)c3ccc(Cl)cn3)ccc2F)[C@H]2CC(F)(F)C[C@@]2(CF)O1" , tested on BACE1 (Homo sapiens)?
Resp: 7.07

Req: Given the entry "NC1=N[C@](CF)(c2cc(NC(=O)c3ccc(C(F)(F)F)cn3)ccc2F)[C@H]2CC(F)(F)C[C@H]2O1" , what pIC50 was observed with BACE1 (Homo sapiens)?
Resp: 8.55

Req: # query: pIC50 | item "NC1=N[C@](CF)(c2cc(NC(=O)c3ncc(C(F)(F)F)cn3)ccc2F)[C@H]2CC(F)(F)C[C@H]2O1" | system: BACE1 (Homo sapiens)
Resp: 7.44
